# target-or-test-system: Estrogen receptor (Rattus norvegicus) (UniProt P06211+Q62986)
# assay-procedure: Relative binding affinity for estrogen receptor of rat uterine cytosol
# Assay type: protein assay
Recorded RBA for the following molecules
Return type: number; implicit unit %.

Memo: CC(C)(C)OCCC[C@H]1C[C@]2(C)[C@@H](O)CC[C@H]2[C@@H]2CCc3cc(O)ccc3[C@@H]12 , reported RBA: 81

Recorded RBA (molecule CCOCCC[C@H]1C[C@]2(C)[C@@H](O)CC[C@H]2[C@@H]2CCc3cc(O)ccc3[C@@H]12 ): 48

Noted for CCCC(=O)CC[C@H]1C[C@]2(C)[C@@H](O)CC[C@H]2[C@@H]2CCc3cc(O)ccc3[C@@H]12 : its RBA reads 7.7

###

# target-or-test-system: Estrogen receptor (Rattus norvegicus) (UniProt P06211+Q62986)
# assay-procedure: Relative binding affinity for estrogen receptor of rat uterine cytosol
# Format: protein assay
property: RBA
Please provide the amount together with its unit, number first.

Some solved cases for reference:
// RBA lookup, compound = COCCC[C@H]1C[C@]2(C)[C@@H](O)CC[C@H]2[C@@H]2CCc3cc(O)ccc3[C@@H]12 , result: 34%

Input CCCOC(=O)C[C@H]1C[C@]2(C)[C@@H](O)CC[C@H]2C2CCc3cc(O)ccc3[C@H]21 (single isomer, unassigned) . Output RBA: 38%

get_value(item= CCNC(=O)C[C@H]1C[C@]2(C)[C@@H](O)CC[C@H]2C2CCc3cc(O)ccc3[C@H]21 (single isomer, unassigned) , readout=RBA) returns 0.1%

RBA measured on CCOC[C@H]1C[C@]2(C)[C@@H](O)CC[C@H]2[C@@H]2CCc3cc(O)ccc3[C@@H]12 = 28%

Query CCCCOC[C@H]1C[C@]2(C)[C@@H](O)CC[C@H]2[C@@H]2CCc3cc(O)ccc3[C@@H]12 yields RBA of 44%

Field RBA (entry CCCC(=O)C[C@H]1C[C@]2(C)[C@@H](O)CC[C@H]2C2CCc3cc(O)ccc3[C@H]21 (single isomer, unassigned) ) reads 13%

Briefly, RBA measured for C[C@]12C[C@H](CCCOCCF)[C@@H]3c4ccc(O)cc4CC[C@H]3[C@@H]1CC[C@@H]2O : 47%

Here is another compound to look at.
# RBA (compound: CC(C)OC(=O)C[C@H]1C[C@]2(C)[C@@H](O)CC[C@H]2C2CCc3cc(O)ccc3[C@H]21 (single isomer, unassigned) ) is 17%
